assay: Stability in mouse liver microsomes assessed as parent compound remaining after 60 mins in presence of NADPH by HPLC analysis; type: ADME, Microsome; details: read-out: Stability

>  <molecular string>
Cc1cc(NC(=O)Nc2cc(C(C)(C)C)nn2-c2cccc(C#N)c2)ccc1-c1cnc(NC2CC2)c2nccn12

>  <units>
%

>  <remaining at 1 h>
37

$$$$
>  <molecular string>
Cc1cc(NC(=O)Nc2cc(C(C)(C)C)nn2-c2ccccc2)ccc1-c1cnc(NC2CC2)c2nccn12

>  <units>
%

>  <remaining at 1 h>
44

$$$$

----------
Each entry below carries its reported remaining at 6 h.
test: Stability in mouse plasma assessed as parent compound remaining after 6 hrs by LC-MS/MS analysis; format: ADME, cell-free; conditions: read-out: Stability
reported metric: remaining at 6 h (%)

>  <molecular string>
Cc1cc(NC(=O)Nc2cc(C(C)(C)C)nn2-c2ccccc2)ccc1-c1cnc(NC2CC2)c2nccn12

>  <reported metric>
remaining at 6 h

>  <recorded result>
88

$$$$
>  <molecular string>
Cc1cc(NC(=O)Nc2cc(C(C)(C)C)nn2-c2cccc(C#N)c2)ccc1-c1cnc(NC2CC2)c2nccn12

>  <reported metric>
remaining at 6 h

>  <recorded result>
88

$$$$

----------
system: LoVo; assay: Growth inhibition of human LoVo cells after 96 hrs by SRB assay; format: functional, cell-based
reported metric: IC50 (nM)

>  <molecular string>
CCc1cc(Nc2ncc(F)c(-c3cnc4cccnn34)n2)cc(OCCN2CCC(O)CC2)c1

>  <recorded result>
75

$$$$
>  <molecular string>
Cc1cc(NC(=O)Nc2cc(C(C)(C)C)nn2-c2ccccc2)ccc1-c1cnc(NC2CC2)c2nccn12

>  <recorded result>
391

$$$$

----------
Each entry below lists one item and its recorded inhibition value.
molecular target: Mitogen-activated protein kinase kinase kinase 7 (Homo sapiens); experiment: Inhibition of TAK1 (unknown origin) at 1 uM by LanthaScreen Eu kinase binding assay relative to control
reported metric: inhibition (%)

>  <molecular string>
Cc1cc(NC(=O)Nc2cc(C(C)(C)C)nn2-c2cccc(C#N)c2)ccc1Oc1cnc(NC2CC2)c2nccn12

>  <units>
%

>  <recorded result>
76

$$$$
>  <molecular string>
Cc1cc(NC(=O)Nc2cc(C(C)(C)C)nn2-c2cccc([N+](=O)[O-])c2)ccc1-c1cnc(NC2CC2)c2ncnn12

>  <units>
%

>  <recorded result>
90

$$$$
>  <molecular string>
Cc1cc(NC(=O)Nc2cc(C(C)(C)C)nn2-c2cccc(F)c2)ccc1-c1cnc(NC2CC2)c2nccn12

>  <units>
%

>  <recorded result>
94

$$$$
>  <molecular string>
Cc1cc(NC(=O)Nc2cc(C(C)(C)C)nn2-c2cccc(C#N)c2)ccc1-c1cnc(NC2CC2)c2ncnn12

>  <units>
%

>  <recorded result>
92

$$$$
>  <molecular string>
Cc1cc(NC(=O)Nc2cc(C(C)(C)C)nn2-c2ccccc2)ccc1Oc1cn2ccnc2c(NC2CC2)n1

>  <units>
%

>  <recorded result>
30

$$$$
>  <molecular string>
Cc1cc(C(=O)Nc2cc(C(C)(C)C)nn2-c2ccccc2)ccc1Oc1cnc(NC2CC2)c2nccn12

>  <units>
%

>  <recorded result>
3

$$$$

----------
assay: Oral bioavailability in ICR mouse at 10 mg/kg administered as single dose by LC-MS/MS analysis; type: ADME, organism-based; details: in vivo

>  <molecular string>
Cc1cc(NC(=O)Nc2cc(C(C)(C)C)nn2-c2cccc(C#N)c2)ccc1-c1cnc(NC2CC2)c2nccn12

>  <units>
%

>  <bioavailability>
3.1

$$$$

----------
target: Cytochrome P450 3A4 (Homo sapiens)
Sequence (P08684 whole entry): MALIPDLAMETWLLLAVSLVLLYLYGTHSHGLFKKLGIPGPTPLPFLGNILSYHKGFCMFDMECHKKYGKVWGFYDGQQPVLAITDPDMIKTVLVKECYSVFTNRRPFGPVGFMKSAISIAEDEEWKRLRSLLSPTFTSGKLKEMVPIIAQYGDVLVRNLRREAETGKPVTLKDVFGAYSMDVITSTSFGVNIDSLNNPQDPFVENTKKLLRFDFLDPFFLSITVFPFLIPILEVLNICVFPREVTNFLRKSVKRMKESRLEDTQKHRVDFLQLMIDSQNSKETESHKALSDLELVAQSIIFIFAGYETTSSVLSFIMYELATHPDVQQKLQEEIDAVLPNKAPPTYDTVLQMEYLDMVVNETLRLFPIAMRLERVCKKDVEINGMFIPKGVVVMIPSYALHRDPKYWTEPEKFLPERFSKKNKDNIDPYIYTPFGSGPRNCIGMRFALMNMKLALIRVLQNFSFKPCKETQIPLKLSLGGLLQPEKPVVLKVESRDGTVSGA
pIC50: −log10 of the molar value.
reported metric: pIC50

>  <molecular string>
Cc1cc(NC(=O)Nc2cc(C(C)(C)C)nn2-c2ccccc2)ccc1-c1cnc(NC2CC2)c2nccn12

>  <subject of test>
Cytochrome P450 3A4 (Homo sapiens)

>  <reported metric>
pIC50

>  <recorded result>
5.45

$$$$

----------
Biological target: Mitogen-activated protein kinase kinase kinase 7 (Homo sapiens) (UniProt O43318)
Sequence (whole entry): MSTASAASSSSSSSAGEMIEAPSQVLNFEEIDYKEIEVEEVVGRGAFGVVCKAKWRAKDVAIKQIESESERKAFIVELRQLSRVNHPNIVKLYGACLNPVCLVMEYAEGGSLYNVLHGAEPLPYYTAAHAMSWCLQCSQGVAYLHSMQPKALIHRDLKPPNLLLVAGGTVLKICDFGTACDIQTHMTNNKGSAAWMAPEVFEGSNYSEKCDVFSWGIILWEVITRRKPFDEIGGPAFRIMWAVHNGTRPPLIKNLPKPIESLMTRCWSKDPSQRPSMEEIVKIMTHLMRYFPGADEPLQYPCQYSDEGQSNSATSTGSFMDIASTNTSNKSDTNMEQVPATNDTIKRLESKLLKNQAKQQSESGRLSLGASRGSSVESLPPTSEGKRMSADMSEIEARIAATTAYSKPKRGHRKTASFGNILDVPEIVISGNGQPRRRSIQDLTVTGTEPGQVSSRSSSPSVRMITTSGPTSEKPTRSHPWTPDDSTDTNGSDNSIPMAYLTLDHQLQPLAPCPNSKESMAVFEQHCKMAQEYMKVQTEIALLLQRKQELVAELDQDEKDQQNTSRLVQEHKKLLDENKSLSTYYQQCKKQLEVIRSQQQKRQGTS
Assay: Inhibition of TAK1 (unknown origin) at 1 uM by LanthaScreen Eu kinase binding assay relative to control
Kindly return yes if reported inhibition is no lower than 90%; return no if it is lower.

>  <molecular string>
CCc1cc(Nc2ncc(F)c(-c3cnc4cccnn34)n2)cc(OCCN2CCC(O)CC2)c1

>  <label class>
yes

$$$$
>  <molecular string>
Cc1cc(NC(=O)Nc2cc(C(C)(C)C)nn2-c2cccc(Cl)c2)ccc1-c1cnc(NC2CC2)c2nccn12

>  <label class>
no

$$$$
>  <molecular string>
Cc1cc(NC(=O)Nc2cc(C(C)(C)C)nn2-c2ccccc2)ccc1-c1cnc(NC2CC2)c2nccn12

>  <label class>
yes

$$$$
>  <molecular string>
Cc1cc(NC(=O)Nc2cc(C(C)(C)C)nn2-c2ccc(C#N)cc2)ccc1-c1cnc(NC2CC2)c2nccn12

>  <label class>
no

$$$$
>  <molecular string>
Cc1cc(NC(=O)Nc2cc(C(C)(C)C)nn2-c2ccc(F)cc2)ccc1-c1cnc(NC2CC2)c2nccn12

>  <label class>
no

$$$$

----------
target: Mitogen-activated protein kinase kinase kinase 7 (Homo sapiens) (UniProt O43318); assay: Inhibition of TAK1 (unknown origin) at 0.1 uM by LanthaScreen Eu kinase binding assay relative to control
Classification field: t = inhibition at or over 20%; f = inhibition under 20%.

>  <molecular string>
Cc1cc(NC(=O)Nc2cc(C(C)(C)C)nn2-c2cccc([N+](=O)[O-])c2)ccc1-c1cnc(NC2CC2)c2ncnn12

>  <label class>
t

$$$$
>  <molecular string>
Cc1cc(NC(=O)Nc2cc(C(C)(C)C)nn2-c2cccc(C#N)c2)ccc1-c1cnc(NC2CC2)c2ncnn12

>  <label class>
t

$$$$
>  <molecular string>
Cc1cc(NC(=O)Nc2cc(C(C)(C)C)nn2-c2ccccc2)ccc1Oc1cn2ccnc2c(NC2CC2)n1

>  <label class>
f

$$$$
>  <molecular string>
Cc1cc(NC(=O)Nc2cc(C(C)(C)C)nn2-c2cccc(Cl)c2)ccc1-c1cnc(NC2CC2)c2ncnn12

>  <label class>
f

$$$$
>  <molecular string>
Cc1cc(NC(=O)Nc2cc(C(C)(C)C)nn2-c2cccc(Cl)c2)ccc1-c1cnc(NC2CC2)c2nccn12

>  <label class>
f

$$$$
>  <molecular string>
Cc1cc(NC(=O)Nc2cc(C(C)(C)C)nn2-c2cccc(F)c2)ccc1-c1cnc(NC2CC2)c2nccn12

>  <label class>
t

$$$$
>  <molecular string>
Cc1cc(NC(=O)Nc2cc(C(C)(C)C)nn2-c2cccnc2)ccc1-c1cnc(NC2CC2)c2nccn12

>  <label class>
t

$$$$
>  <molecular string>
Cc1cc(NC(=O)Nc2cc(C(C)(C)C)nn2-c2ccccc2)ccc1-c1cnc(NC2CC2)c2ncnn12

>  <label class>
t

$$$$
>  <molecular string>
Cc1cc(NC(=O)Nc2cc(C(C)(C)C)nn2-c2cccc(C#N)c2)ccc1Oc1cnc(NC2CC2)c2nccn12

>  <label class>
f

$$$$
>  <molecular string>
Cc1cc(NC(=O)Nc2cc(C(C)(C)C)nn2-c2cccc(C#N)c2)ccc1-c1cnc(NC2CC2)c2nccn12

>  <label class>
t

$$$$
>  <molecular string>
Cc1ccc(C(=O)Nc2cc(C(C)(C)C)nn2-c2ccccc2)cc1Oc1cnc(NC2CC2)c2nccn12

>  <label class>
f

$$$$
>  <molecular string>
Cc1cc(NC(=O)Nc2cc(C(C)(C)C)nn2-c2ccc(C#N)cc2)ccc1-c1cnc(NC2CC2)c2nccn12

>  <label class>
f

$$$$
>  <molecular string>
Cc1cc(NC(=O)Nc2cc(C(C)(C)C)nn2-c2ccccc2)ccc1-c1cnc(NC2CC2)c2nccn12

>  <label class>
t

$$$$
>  <molecular string>
CCc1cc(Nc2ncc(F)c(-c3cnc4cccnn34)n2)cc(OCCN2CCC(O)CC2)c1

>  <label class>
t

$$$$
>  <molecular string>
Cc1ccc(-n2nc(C(C)(C)C)cc2NC(=O)Nc2ccc(-c3cnc(NC4CC4)c4nccn34)c(C)c2)cc1

>  <label class>
f

$$$$
>  <molecular string>
Cc1cc(NC(=O)Nc2cc(C(C)(C)C)nn2-c2ccc(F)cc2)ccc1-c1cnc(NC2CC2)c2nccn12

>  <label class>
f

$$$$
>  <molecular string>
Cc1cc(C(=O)Nc2cc(C(C)(C)C)nn2-c2ccccc2)ccc1Oc1cnc(NC2CC2)c2nccn12

>  <label class>
f

$$$$
